# System: phosphorylation of Akt at Serine 473 in U87 MG cells
# assay-summary: cells
# reported-conditions: Homo sapiens, U-87 MG, 2 h, read-out: U87Cell IC50, pAkt (Ser 473), U87 MG cells, two hours with compound
Please go through the items and note down their pIC50.
One number for each entry, as −log10 of the molar value.

COc1ccc(Nc2nc3ccccc3cc2-c2nc(C)nc(N)n2)cn1 : 6.61
Cc1nc(N)nc(-c2cc(CN3CCNCC3)cnc2Nc2ccc3[nH]cnc3c2)n1 : 5.57
Cc1nc(N)nc(-c2cc([C@@H](C)N3CCN(S(C)(=O)=O)CC3)cnc2Nc2cc(F)c3cccnc3c2)n1 : 6.69
COc1ncc(Nc2ncc(C(C)NC(C)C)cc2-c2nc(C)nc(N)n2)cc1F (centres unmarked) : 7.35

// for each compound below, give its pIC50
1. Cc1nc(N)nc(-c2cc(CN3CCN(S(C)(=O)=O)CC3)cnc2Nc2cccc3[nH]ncc23)n1
2. COc1ccc(Nc2ncc(C(N3CCN(S(C)(=O)=O)CC3)C(F)(F)F)cc2-c2nc(C)nc(N)n2)cn1 (centres unmarked)

**Result**
1. 7.66
2. 7.10

----------
# system: PI3Kα (Homo sapiens (Human), UniProt P42336)
# Sequence (P42336 whole entry): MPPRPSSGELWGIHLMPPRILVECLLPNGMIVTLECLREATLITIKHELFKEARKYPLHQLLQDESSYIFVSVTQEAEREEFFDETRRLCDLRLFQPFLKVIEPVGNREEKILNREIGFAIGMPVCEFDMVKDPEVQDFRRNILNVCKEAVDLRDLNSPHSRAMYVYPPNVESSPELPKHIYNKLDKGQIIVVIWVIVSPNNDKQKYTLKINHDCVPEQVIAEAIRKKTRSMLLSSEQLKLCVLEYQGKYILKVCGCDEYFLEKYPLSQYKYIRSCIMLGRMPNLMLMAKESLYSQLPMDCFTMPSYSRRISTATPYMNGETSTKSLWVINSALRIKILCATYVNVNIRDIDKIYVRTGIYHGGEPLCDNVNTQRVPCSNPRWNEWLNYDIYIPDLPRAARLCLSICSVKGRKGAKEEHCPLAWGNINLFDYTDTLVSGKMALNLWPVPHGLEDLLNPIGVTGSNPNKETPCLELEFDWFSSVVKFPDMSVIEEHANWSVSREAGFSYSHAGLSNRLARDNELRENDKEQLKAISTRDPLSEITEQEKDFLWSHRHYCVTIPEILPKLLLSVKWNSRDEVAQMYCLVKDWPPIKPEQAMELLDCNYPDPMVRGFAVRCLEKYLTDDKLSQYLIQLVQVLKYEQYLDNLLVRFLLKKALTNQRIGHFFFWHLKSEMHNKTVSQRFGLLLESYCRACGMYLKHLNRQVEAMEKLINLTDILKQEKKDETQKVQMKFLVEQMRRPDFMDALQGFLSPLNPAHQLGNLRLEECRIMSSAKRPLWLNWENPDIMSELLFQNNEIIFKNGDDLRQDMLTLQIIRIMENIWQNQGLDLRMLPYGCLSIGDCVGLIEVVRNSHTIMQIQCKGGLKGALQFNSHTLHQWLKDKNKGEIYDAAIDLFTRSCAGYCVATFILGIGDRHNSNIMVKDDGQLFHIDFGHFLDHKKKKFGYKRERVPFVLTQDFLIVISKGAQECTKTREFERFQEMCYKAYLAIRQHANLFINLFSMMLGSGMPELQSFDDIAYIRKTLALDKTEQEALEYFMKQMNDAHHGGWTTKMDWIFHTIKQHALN
# Sequence (P27986 whole entry partner): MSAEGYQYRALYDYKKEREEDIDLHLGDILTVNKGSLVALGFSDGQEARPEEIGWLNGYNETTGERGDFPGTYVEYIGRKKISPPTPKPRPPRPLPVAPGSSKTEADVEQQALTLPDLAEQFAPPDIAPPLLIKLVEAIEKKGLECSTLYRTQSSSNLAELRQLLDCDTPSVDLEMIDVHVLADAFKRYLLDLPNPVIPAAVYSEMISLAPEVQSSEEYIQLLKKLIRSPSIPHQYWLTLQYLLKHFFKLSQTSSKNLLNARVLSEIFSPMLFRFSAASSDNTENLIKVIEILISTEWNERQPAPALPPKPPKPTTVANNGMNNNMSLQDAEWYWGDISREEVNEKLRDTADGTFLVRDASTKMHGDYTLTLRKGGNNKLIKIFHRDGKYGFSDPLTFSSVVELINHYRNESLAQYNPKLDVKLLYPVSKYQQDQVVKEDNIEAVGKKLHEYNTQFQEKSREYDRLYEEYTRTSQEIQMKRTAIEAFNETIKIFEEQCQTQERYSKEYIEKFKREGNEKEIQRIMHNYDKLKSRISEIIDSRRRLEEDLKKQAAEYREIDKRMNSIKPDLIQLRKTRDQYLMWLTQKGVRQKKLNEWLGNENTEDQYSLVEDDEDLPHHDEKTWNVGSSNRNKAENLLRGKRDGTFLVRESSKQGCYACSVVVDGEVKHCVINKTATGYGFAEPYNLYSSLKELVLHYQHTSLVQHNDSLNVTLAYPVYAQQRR
# reported-conditions: read-out: PI3Kα AlphaScreen ® Ki
I'd be grateful if you could share measured pKi for these entries.
Numbers only, as −log10 of the molar value.

Cc1nc(N)nc(-c2cc(CN3CCN(S(C)(=O)=O)CC3)cnc2Nc2cccc(O)c2)n1 : 8.10
COc1ccc(Nc2nc(N)ncc2-c2nc(C)nc(N)n2)cn1 : 6.95
COc1ncc(Nc2ncc(CN3CCOCC3)cc2-c2nc(C)nc(N)n2)cc1NS(C)(=O)=O : 7.01

// each listed compound needs a value for pKi
1. CCc1cnc(Nc2ccc(OC)nc2)c(-c2nc(C)nc3[nH]cnc23)c1
2. COc1ncc(Nc2ncc(C=O)cc2-c2nc(C)nc(N)n2)cc1F

**Result**
1. 7.96
2. 7.89

----------
# System: ProfilerPro Kinase Selectivity Assay Kit kinases
# Assay type: biochemical
# reported-conditions: AMPK; 1 μM compound concentration
property: POC (Percent of control) AMPK (POC)
Numbers only, in POC.

# example entries with known answers
COc1ccc(Nc2ncccc2-c2ncnc3[nH]cnc23)cn1 [Example 20] : 93
Cc1nc(N)nc(-c2cccnc2Nc2cccc3[nH]ccc23)n1 [Example 22] : 92

Next up:
**Query** Consider the molecule shown here: c1cnc(Nc2cccc3[nH]ncc23)c(-c2ncnc3[nH]cnc23)c1 [Example 18] What is its recorded POC (Percent of control) AMPK?
**Result** 83

----------
# System: phosphorylation of Akt at Serine 473 in U87 MG cells
# assay-summary: cells
# reported-conditions: Homo sapiens, U-87 MG, 2 h, read-out: U87Cell IC50, pAkt (Ser 473), U87 MG cells, two hours with compound
property: IC50 (nM)
One number for each entry, in nM.

Worked examples follow.
Cc1nc(N)cc(-c2cc([C@@H](C)N3CCOCC3)cnc2Nc2cnc(Cl)c(NS(=O)(=O)N(C)C)c2)n1 [Example 381] : 40
Cc1nc(N)nc(-c2cc(C3CCOCC3)cnc2Nc2cnc(Cl)c(NS(C)(=O)=O)c2)n1 [Example 328] : 1

**Query** Quick one: IC50 for Cc1nc(N)nc(-c2cc(CN3CCN(S(C)(=O)=O)C[C@@H]3C)cnc2Nc2ccc(Cl)nc2)n1 [Example 318] ?
**Result** 44

----------
# system: UniProt P49841
# Assay type: biochemical
# reported-conditions: GSK3 beta; 1 μM compound concentration
property: POC (Percent of control) GSK3 beta (POC)
One number for each entry, in POC.

Below, each entry is followed by its recorded POC (Percent of control) GSK3 beta result.
CCc1cnc(Nc2ccc(OC)nc2)c(-c2nc(C)nc3[nH]cnc23)c1 [Example 74] : 100
Cc1nc(N)nc(-c2cccnc2Nc2cccc3[nH]ccc23)n1 [Example 22] : 94
Cc1cnc(Nc2cccc3[nH]ccc23)c(-c2nc(C)nc(N)n2)c1 [Example 46] : 95

Let us examine a further case.
**Query** Query (compound): COc1ccc(Nc2ncc(Cc3ccc(S(C)(=O)=O)cc3)cc2-c2nc(C)nc3[nH]cnc23)cn1 [Example 103] ; field requested: POC (Percent of control) GSK3 beta
**Result** 96

----------
I'd appreciate it if you could supply POC (Percent of control) p70S6K values for the items below.
# system: UniProt P23443
# Assay type: biochemical
# reported-conditions: p70S6K; 1 μM compound concentration

Cc1nc(N)nc(-c2cc(CN3CCN(S(C)(=O)=O)CC3)cnc2Nc2cccc(O)c2)n1 : 97 POC

Batch request: POC (Percent of control) p70S6K per item, same order as input.
1. c1cnc(Nc2cccc3[nH]ncc23)c(-c2ncnc3[nH]cnc23)c1
2. COc1ccc(Nc2ncc(CN3CCN(C(C)=O)CC3)cc2-c2nc(C)nc3[nH]cnc23)cn1

**Result**
98 POC
89 POC

----------
Field: POC (Percent of control) INSR. Provide a value for each of the compounds that follow.
# system: ProfilerPro Kinase Selectivity Assay Kit kinases (Homo sapiens)
# Assay type: biochemical
# reported-conditions: INSR; 1 μM compound concentration
Give bare numbers, in POC.

Some solved cases for reference:
Cc1nc(N)nc(-c2cccnc2Nc2cccc(O)c2)n1 : 98
c1cnc(Nc2cccc3[nH]ncc23)c(-c2ncnc3[nH]cnc23)c1 : 90
COc1ccc(Nc2ncc(Cc3ccc(S(C)(=O)=O)cc3)cc2-c2nc(C)nc3[nH]cnc23)cn1 : 95
CCc1cnc(Nc2ccc(OC)nc2)c(-c2nc(C)nc3[nH]cnc23)c1 : 96
Cc1cnc(Nc2cccc3[nH]ccc23)c(-c2nc(C)nc(N)n2)c1 : 98
COc1ccc(Nc2ncccc2-c2nc(C)nc3[nH]cnc23)cn1 : 104
Cc1nc(N)nc(-c2cccnc2Nc2cccc3[nH]ccc23)n1 : 96
Cc1nc(-c2cccnc2Nc2cccc3[nH]ncc23)c2nc[nH]c2n1 : 94
Cc1cnc(Nc2cccc3[nH]ncc23)c(-c2nc(C)nc(N)n2)c1 : 99

**Query** Item `COc1ccc(Nc2ncccc2-c2ncnc3[nH]cnc23)cn1` has what recorded POC (Percent of control) INSR?
**Result** 97

----------
For each entry below, report its Ki value.
# system: PI3Kα (Homo sapiens (Human), UniProt P42336)
# reported-conditions: read-out: PI3Kα AlphaScreen ® Ki
Answers are plain numbers, in nM.

Some solved entries appear below for comparison.
COc1ccc(Nc2ncc(C(C)N3CCN(S(C)(=O)=O)CC3)cc2-c2nc(C)nc3[nH]cnc23)cn1 (stereo not shown) [Example 140] : 6
COCCOc1ccc(NC(=O)Nc2ccc(Nc3ncc(Cl)cc3-c3nc(C)nc(N)n3)cn2)cc1 [Example 195] : 16
COc1ncc(Nc2ncc(CN3CCN(C(=O)N(C)C(C)C)CC3)cc2-c2nc(C)nc(N)n2)cc1F [Example 357] : 14

**Query** Lookup: Ki / PI3Kα (Homo sapiens (Human), UniProt P42336) / COc1ccc(Nc2ncc(CN3CC(S(C)(=O)=O)C3)cc2-c2nc(C)nc(N)n2)cn1 [Example 223]
**Result** 6

----------
# system: ProfilerPro Kinase Selectivity Assay Kit kinases (Homo sapiens, UniProt O75116)
# Format: biochemical
# reported-conditions: ROCK2; 1 μM compound concentration
The label met is reserved for POC (Percent of control) ROCK2 strictly under 100 POC; not met covers values equal to or above it.

Cc1nc(-c2cccnc2Nc2cccc3[nH]ncc23)c2nc[nH]c2n1 : met
COc1ccc(Nc2ncc(Cc3ccc(S(C)(=O)=O)cc3)cc2-c2nc(C)nc3[nH]cnc23)cn1 : not met

Consider the record given below.
**Query** Lab note: POC (Percent of control) ROCK2 threshold 100 POC. Does this compound come in strictly under it? `Cc1cnc(Nc2cccc3[nH]ccc23)c(-c2nc(C)nc(N)n2)c1`
**Result** met

----------
Task for the reader: assign each of the following compounds its reported Mutant B-raf HTRF Assay POC Mean n = 2.
# system: human mutant B-raf (HuBraf V600E) (Homo sapiens (Human), UniProt P15056, V600E)
# Sequence (P15056 whole entry V600E): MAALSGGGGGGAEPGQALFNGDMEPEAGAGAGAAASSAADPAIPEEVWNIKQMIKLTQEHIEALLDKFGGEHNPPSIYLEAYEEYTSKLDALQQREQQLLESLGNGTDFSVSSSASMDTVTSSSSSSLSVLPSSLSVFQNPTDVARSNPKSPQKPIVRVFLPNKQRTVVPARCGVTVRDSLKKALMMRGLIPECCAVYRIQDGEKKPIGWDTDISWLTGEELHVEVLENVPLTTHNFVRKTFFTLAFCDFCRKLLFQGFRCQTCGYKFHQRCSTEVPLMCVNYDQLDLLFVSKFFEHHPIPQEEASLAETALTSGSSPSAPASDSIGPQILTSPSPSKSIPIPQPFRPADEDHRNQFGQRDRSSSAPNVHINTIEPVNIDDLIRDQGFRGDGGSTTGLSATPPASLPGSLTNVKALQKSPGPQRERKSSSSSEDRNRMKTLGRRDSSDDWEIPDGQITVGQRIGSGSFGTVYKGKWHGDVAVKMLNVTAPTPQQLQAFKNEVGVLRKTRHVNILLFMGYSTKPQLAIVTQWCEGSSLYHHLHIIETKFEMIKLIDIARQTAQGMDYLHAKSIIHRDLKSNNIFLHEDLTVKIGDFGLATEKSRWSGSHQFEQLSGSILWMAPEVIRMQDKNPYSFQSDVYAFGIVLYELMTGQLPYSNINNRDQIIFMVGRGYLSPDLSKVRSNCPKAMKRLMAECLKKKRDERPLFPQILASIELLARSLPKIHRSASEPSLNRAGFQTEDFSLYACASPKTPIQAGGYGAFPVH
# reported-conditions: at 10 μM compound concentration; POC = 100 − percent inhibition

These recorded examples may help you get a feel for the data.
Cc1nc(N)cc(-c2cnccc2Nc2cccc3[nH]ccc23)n1 : 35% of Control (POC)
c1cnc(Nc2cccc3[nH]ncc23)c(-c2ncnc3[nH]cnc23)c1 : 3% of Control (POC)
Cc1nc(N)cc(-c2cccnc2Nc2cccc3[nH]ncc23)n1 : 110% of Control (POC)
COc1cnc(Nc2ccc(OC)nc2)c(-c2nc(C)nc(N)n2)c1 : 94% of Control (POC)
Cc1nc(-c2cccnc2Nc2cccc3[nH]ccc23)c2nc[nH]c2n1 : 58% of Control (POC)

For each of the compounds below, state Mutant B-raf HTRF Assay POC Mean n = 2.
1. COc1ccc(Nc2ncc(N3CCOCC3)cc2-c2nc(C)nc3[nH]cnc23)cn1
2. Cc1nc(N)cc(-c2cccnc2Nc2cccc(O)c2)n1
3. COc1ccc(Nc2ncc(CN3CCN(C(C)=O)CC3)cc2-c2nc(C)nc3[nH]cnc23)cn1

**Result**
96% of Control (POC)
84% of Control (POC)
102% of Control (POC)

The following compounds each have a reported value; give each one's Mutant B-raf HTRF Assay POC Mean n = 2.
1. Cc1cnc(Nc2cccc3[nH]ccc23)c(-c2nc(C)nc(N)n2)c1
2. Cc1nc(N)nc(-c2cccnc2Nc2cccc3[nH]ncc23)n1
3. CC(=O)Nc1ccc(Nc2ncccc2-c2ncnc3[nH]cnc23)cn1
4. Cc1nc(N)cc(-c2cnccc2Nc2cccc3[nH]ncc23)n1

**Result**
["68% of Control (POC)", "94% of Control (POC)", "42% of Control (POC)", "62% of Control (POC)"]
